Measured IC50 values are reported for all entries that follow.
# Assay Target: CK1δ (Homo sapiens (Human))
# Sequence (P48730 whole entry): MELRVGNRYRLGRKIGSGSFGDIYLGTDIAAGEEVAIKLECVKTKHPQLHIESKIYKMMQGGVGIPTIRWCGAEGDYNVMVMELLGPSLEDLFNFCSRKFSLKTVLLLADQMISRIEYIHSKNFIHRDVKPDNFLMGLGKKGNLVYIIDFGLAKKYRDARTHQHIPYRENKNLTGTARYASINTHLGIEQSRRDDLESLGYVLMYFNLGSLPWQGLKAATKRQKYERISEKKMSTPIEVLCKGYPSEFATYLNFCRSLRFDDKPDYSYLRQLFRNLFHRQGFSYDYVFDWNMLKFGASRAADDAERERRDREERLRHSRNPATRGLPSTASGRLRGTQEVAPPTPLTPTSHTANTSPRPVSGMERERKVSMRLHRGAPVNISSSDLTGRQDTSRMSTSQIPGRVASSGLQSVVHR
# Assay Name: CK1δ kinase assay (Caliper LABCHIP electrophoretic separation of fluoresceinated peptide substrate and product)
# Type: biochemical
# Cond: 200 pM CK1δ, 50 μM ATP, 1.5 μM peptide substrate, 22 hours at room temperature; read-out: CK1δ (IC50)

Given Cc1cc(NC(=O)N2CCn3nc(-c4cc(Cl)c5ocnc5c4)c(C(N)=O)c3C2)ccc1C#N [Compound 310] , report its IC50 on CK1δ (Homo sapiens (Human)).
0.01 to 10 nM

State recorded IC50 with CK1δ (Homo sapiens (Human)), entry N#Cc1ccc(NC(=O)N2Cc3c(C(N)=O)c(-c4ccc(F)c(Cl)c4)nn3[C@@H](C(F)F)C2)cc1F [Compound A23] , no comment.
0.01 to 10 nM

Look up and report measured IC50 (CK1δ (Homo sapiens (Human))) for the following compound: NC(=O)c1c(-c2cccc(F)c2)nn2c1CN(C(=O)Nc1cccnc1)CC2 [Compound 68]
0.01 to 10 nM

Look up CK1δ (Homo sapiens (Human)) data: IC50 of NC(=O)c1c(-c2ccc(F)c(Cl)c2)nn2c1CN(C(=O)Nc1cc(F)c(F)c(F)c1)CC2 [Compound 187] , then report it.
0.01 to 10 nM

Supply IC50 measured with CK1δ (Homo sapiens (Human)) for CNC(=O)c1c(-c2ccc(F)c(Cl)c2)nn2c1CN(C(=O)Nc1ccc(C#N)cc1)CC2 [Compound A64] .
100 to 2000 nM

Look up and report IC50, with CK1δ (Homo sapiens (Human)) as system, for N#Cc1ccc(NC(=O)N2CCn3nc(-c4cc(F)cc(Cl)c4)c(C(N)=O)c3C2)cc1F [Compound 215]
0.01 to 10 nM

State measured IC50 of the compound N#Cc1ccc(NC(=O)N2Cc3c(C(N)=O)c(-c4ccc(F)c(Cl)c4)nn3CC2C(F)(F)F)cc1 (single isomer, unassigned) [Compound 335] with CK1δ (Homo sapiens (Human)).
100 to 2000 nM

Quote IC50 with test system CK1δ (Homo sapiens (Human)) for NC(=O)c1c(-c2ccc(F)c(Cl)c2)nn2c1CN(C(=O)Nc1cccc(F)c1F)CC2 [Compound 191]
0.01 to 10 nM

Give measured IC50 for Cc1cc(NC(=O)N2CCn3nc(-c4ccc(F)c(Cl)c4)c(C(N)=O)c3C2)ccc1C#N [Compound A48] (CK1δ (Homo sapiens (Human))).
0.01 to 10 nM

Please indicate recorded IC50 of Cc1cccc(-c2nn3c(c2C(N)=O)CN(C(=O)Nc2ccc(C#N)cc2)CC3)c1 [Compound 289] measured with CK1δ (Homo sapiens (Human)).
0.01 to 10 nM

Give IC50 for NC(=O)c1c(-c2cccc(F)c2)nn2c1CN(C(=O)Nc1cc(F)cc(F)c1)CC2 [Compound 31] tested on CK1δ (Homo sapiens (Human)).
0.01 to 10 nM
